# assayed-target: T1, human TIGIT expressed on cells (human, UniProt Q495A1 22-244)
# T1 construct: HEK 293 cells stably expressing human TIGIT, primary human T cells or Jurkat effector cells; the cell is named under assay; also called Human TIGIT HEK
# T1 sequence: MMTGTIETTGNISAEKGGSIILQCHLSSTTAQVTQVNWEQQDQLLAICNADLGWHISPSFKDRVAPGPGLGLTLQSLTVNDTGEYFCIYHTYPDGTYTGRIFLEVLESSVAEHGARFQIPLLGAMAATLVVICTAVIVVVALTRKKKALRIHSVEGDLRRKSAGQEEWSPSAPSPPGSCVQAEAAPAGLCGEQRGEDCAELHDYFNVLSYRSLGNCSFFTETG
# test-summary: flow cytometry on HEK 293 cells expressing the target, MFI over parental HEK 293;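 further: bound antibody detected with PE-labelled anti-human IgG, 15 min on ice. FOB equals median fluorescence on TIGIT-positive cells divided by that on target-negative cells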
assay-endpoint: FOB (Fold Over Background) (fold)
Write down the numeric answer in fold and omit the unit.

Which FOB (Fold Over Background) value belongs to Clone 25 (antibody, V domains shown, Fully human IgG produced in yeast; also called anti-TIGIT clone 25) VH: QVQLVQSGAEVKKPGASVKVSCKASGYTFTSYAISWVRQAPGQGLEWMGWISAYNGNTNYAQKLQGRVTMTTDTSTSTAYMELRSLRSDDTAVYYCARDLSSFWSGDVLGAFDIWGQGTMVTVSS VL: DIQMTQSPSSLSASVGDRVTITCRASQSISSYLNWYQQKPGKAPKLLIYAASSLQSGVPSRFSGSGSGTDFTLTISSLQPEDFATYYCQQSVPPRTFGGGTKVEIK ?
205

Which FOB (Fold Over Background) value belongs to Clone 16D (antibody, V domains shown) VH: QVQLVQSGAEVKKPGSSVKVSCKASGGTFSDYPISWVRQAPGQGLEWMGGIIPIVGGANYAQKFQGRVTITADESTSTAYMELSSLRSEDTAVYYCTRQSTWHKLFGTDVWGQGTTVTVSS VL: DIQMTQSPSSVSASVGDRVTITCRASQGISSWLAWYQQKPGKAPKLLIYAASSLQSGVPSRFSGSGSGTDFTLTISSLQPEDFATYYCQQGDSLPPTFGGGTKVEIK ?
199

Which FOB (Fold Over Background) value belongs to Clone 25A (antibody, V domains shown) VH: QVQLVQSGAEVKKPGASVKVSCKASGYTFTSYAISWVRQAPGQGLEWMGWISAYNGNTKYAQKLQGRVTMTTDTSTSTAYMELRSLRSDDTAVYYCARDLSSFWSGDVLGAFDIWGQGTMVTVSS VL: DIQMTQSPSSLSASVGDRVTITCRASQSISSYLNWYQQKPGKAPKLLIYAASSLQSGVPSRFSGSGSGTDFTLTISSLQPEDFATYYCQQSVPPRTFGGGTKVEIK ?
207

Which FOB (Fold Over Background) value belongs to Clone 25C (antibody, V domains shown) VH: QVQLVQSGAEVKKPGASVKVSCKASGYTFTSYPIGWVRQAPGQGLEWMGWISSYNGNTNYAQKLQGRVTMTTDTSTSTAYMELRSLRSDDTAVYYCARGASSFWSGDVLGAFDIWGQGTMVTVSS VL: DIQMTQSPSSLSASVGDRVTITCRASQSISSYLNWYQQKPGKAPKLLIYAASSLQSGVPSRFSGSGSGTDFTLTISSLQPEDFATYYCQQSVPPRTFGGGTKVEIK ?
216

Which FOB (Fold Over Background) value belongs to Clone 16 (antibody, V domains shown, Fully human IgG produced in yeast) VH: QVQLVQSGAEVKKPGSSVKVSCKASGGTFSSYAISWVRQAPGQGLEWMGGIIPIFGTASYAQKFQGRVTITADESTSTAYMELSSLRSEDTAVYYCARQSTWHKLYGTDVWGQGTTVTVSS VL: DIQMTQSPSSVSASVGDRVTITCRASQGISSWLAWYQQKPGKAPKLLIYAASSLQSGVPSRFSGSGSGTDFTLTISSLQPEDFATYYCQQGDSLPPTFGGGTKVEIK ?
192

Which FOB (Fold Over Background) value belongs to Clone 16E (antibody, V domains shown) VH: QVQLVQSGAEVKKPGSSVKVSCKASGGTFSDYPISWVRQAPGQGLEWMGGIIPIVGGANYAQKFQGRVTITADESTSTAYMELSSLRSEDTAVYYCARQSTWHKVYGTDVWGQGTTVTVSS VL: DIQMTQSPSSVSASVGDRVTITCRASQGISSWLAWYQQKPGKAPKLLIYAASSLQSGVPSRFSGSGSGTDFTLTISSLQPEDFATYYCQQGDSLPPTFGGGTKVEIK ?
195

Which FOB (Fold Over Background) value belongs to Clone 25E (antibody, V domains shown) VH: QVQLVQSGAEVKKPGASVKVSCKASGYTFTSYAIAWVRQAPGQGLEWMGWISAYNGNTNYAQKLQGRVTMTTDTSTSTAYMELRSLRSDDTAVYYCARSGSSFWSGDVLGAFDIWGQGTMVTVSS VL: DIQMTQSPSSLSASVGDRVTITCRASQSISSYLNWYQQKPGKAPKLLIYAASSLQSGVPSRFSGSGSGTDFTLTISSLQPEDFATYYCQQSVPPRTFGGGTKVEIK ?
204

Which FOB (Fold Over Background) value belongs to Clone 2C (antibody, V domains shown) VH: EVQLVESGGGLVQPGGSLRLSCAASGFTFTDYYMDWVRQAPGKGLEWVGRTRNKVNSYYTEYAASVKGRFTISRDDSKNSLYLQMNSLKTEDTAVYYCARGQYYYGSDRRGYYYMDVWGQGTTVTVSS VL: EIVLTQSPGTLSLSPGERATLSCRASQSVSSSYLAWYQQKPGQAPRLLIYGASSRATGIPDRFSGSGSGTDFTLTISRLEPEDFAVYYCQQAVPSPLTFGGGTKVEIK ?
193

Which FOB (Fold Over Background) value belongs to Clone 25B (antibody, V domains shown) VH: QVQLVQSGAEVKKPGASVKVSCKASGYTFTSYPIGWVRQAPGQGLEWMGWISSYNGNTNYAQKLQGRVTMTTDTSTSTAYMELRSLRSDDTAVYYCARDLSSFWSGDVLGAFDIWGQGTMVTVSS VL: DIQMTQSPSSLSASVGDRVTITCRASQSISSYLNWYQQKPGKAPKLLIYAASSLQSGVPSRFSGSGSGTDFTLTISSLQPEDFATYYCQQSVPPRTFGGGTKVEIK ?
222

Which FOB (Fold Over Background) value belongs to Clone 2 (antibody, V domains shown, Fully human IgG produced in yeast; also called anti-TIGIT antibody clone 2) VH: EVQLVESGGGLVQPGGSLRLSCAASGFTFSDHYMDWVRQAPGKGLEWVGRTRNKANSYTTEYAASVKGRFTISRDDSKNSLYLQMNSLKTEDTAVYYCARGQYYYGSSSRGYYYMDVWGQGTTVTVSS VL: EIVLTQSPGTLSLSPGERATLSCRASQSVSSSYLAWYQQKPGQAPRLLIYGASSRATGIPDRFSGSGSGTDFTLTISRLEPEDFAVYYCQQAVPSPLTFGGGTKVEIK ?
158

Which FOB (Fold Over Background) value belongs to Clone 25D (antibody, V domains shown) VH: QVQLVQSGAEVKKPGASVKVSCKASGYTFTSYPIGWVRQAPGQGLEWMGWISSYNGNTNYAQKLQGRVTMTTDTSTSTAYMELRSLRSDDTAVYYCARDLKSFWSGDVLGAFDIWGQGTMVTVSS VL: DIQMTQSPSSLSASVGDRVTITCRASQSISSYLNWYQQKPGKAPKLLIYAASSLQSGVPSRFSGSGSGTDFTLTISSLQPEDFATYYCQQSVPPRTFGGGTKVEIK ?
225
